Every entry's value here was drawn from patent US20120214862A1.

# Test system: human Factor 7 mRNA
# EXPERIMENTAL DETAILS: Antisense inhibition of human Factor 7 mRNA in HepB3 cells, lipofectin, 50 nM, real-time RT-PCR
# Type: cell-based
# CONDITION LABEL: HepB3 cells; gapmers targeted to nucleobases 11830 to 11869 of SEQ ID NO: 1 (Table 9)
In the oligonucleotide strings, read from the 5' end, every base follows the letter of its sugar. An asterisk marks phosphorothioate; unmarked linkages are phosphodiester. Other units and linkages are bracketed, terminal groups are in braces. A string of capitals states the bases alone. e = 2'-O-(2-methoxyethyl) (MOE); [5mC] = 5-methylcytosine; d = 2'-deoxy (DNA)
Hi, to clarify the labels: YES covers % Inhibition of human Factor 7 mRNA levels from 50% upward, NO covers anything below 50%.

- SUBSTANCE: "422166 (antisense eA*eG*eG*dA*dG*dA*d[5mC]*dA*dA*dT*dG*dG*dT*d[5mC]*dA*dG*dG*eG*e[5mC]*eT) [compound 422166]"
  SYSTEM NAME: "human Factor 7 mRNA"
  ASSIGNED LABEL: "YES"
- SUBSTANCE: "422162 (antisense eG*eA*e[5mC]*dA*dA*dT*dG*dG*dT*d[5mC]*dA*dG*dG*dG*d[5mC]*dT*dG*eG*eT*eT) [compound 422162]"
  SYSTEM NAME: "human Factor 7 mRNA"
  ASSIGNED LABEL: "YES"
- SUBSTANCE: "422165 (antisense eG*eG*eA*dG*dA*d[5mC]*dA*dA*dT*dG*dG*dT*d[5mC]*dA*dG*dG*dG*e[5mC]*eT*eG) [compound 422165]"
  SYSTEM NAME: "human Factor 7 mRNA"
  ASSIGNED LABEL: "YES"

Now for another entry.
Please tell me: is the substance 422156 (antisense eG*eG*eT*d[5mC]*dA*dG*dG*dG*d[5mC]*dT*dG*dG*dT*dT*dT*dT*dG*eG*eA*eG) [compound 422156] at or over 50% in terms of % Inhibition of human Factor 7 mRNA levels?
NO

====

# System: human Factor 7 mRNA
# EXPERIMENTAL DETAILS: Dose-dependent antisense inhibition of human Factor 7 in HepB3 cells, transfection with electroporation
# Format: cell-based
# CONDITION LABEL: 100 μM, 16 hours (Example 8, Table 16)
# Protocol: The gapmers were also transfected via electroporation and their dose-dependent inhibition of human Factor 7 mRNA was measured. […] After a treatment period of approximately 16 hours, RNA was isolated from the cells and Factor 7 mRNA levels were measured by quantitative real-time PCR. […] Factor 7 mRNA levels were adjusted according to total RNA content, as measured by RIBOGREEN®. […]
In the oligonucleotide strings, read from the 5' end, every base follows the letter of its sugar. An asterisk marks phosphorothioate; unmarked linkages are phosphodiester. Other units and linkages are bracketed, terminal groups are in braces. A string of capitals states the bases alone. e = 2'-O-(2-methoxyethyl) (MOE); [5mC] = 5-methylcytosine; d = 2'-deoxy (DNA)
METRIC NAME: percent inhibition of Factor 7 mRNA, relative to untreated control cells (%)
# number only, unit % dropped from output

Name the recorded percent inhibition of Factor 7 mRNA, relative to untreated control cells for 422229 (antisense eA*eT*dG*d[5mC]*dA*dT*dG*dG*dT*dG*dA*dT*dG*d[5mC]*dT*eT*e[5mC]*eT*eG*eA) [compound 422229] .
92

Name the recorded percent inhibition of Factor 7 mRNA, relative to untreated control cells for 422086 (antisense eT*eG*e[5mC]*eA*eT*dG*dG*dT*dG*dA*dT*dG*d[5mC]*dT*dT*e[5mC]*eT*eG*eA*eA) [compound 422086] .
90

Name the recorded percent inhibition of Factor 7 mRNA, relative to untreated control cells for 422142 (antisense eG*eA*eG*eT*eT*d[5mC]*dT*dG*d[5mC]*dA*dG*dG*dA*dG*d[5mC]*eG*eG*e[5mC]*e[5mC]*eT) [compound 422142] .
65

Name the recorded percent inhibition of Factor 7 mRNA, relative to untreated control cells for 407939 (antisense eT*eG*e[5mC]*eA*eG*d[5mC]*d[5mC]*d[5mC]*dG*dG*d[5mC]*dA*d[5mC]*d[5mC]*d[5mC]*eA*eG*e[5mC]*eG*eA) [compound 407939] .
83

Name the recorded percent inhibition of Factor 7 mRNA, relative to untreated control cells for 422292 (antisense eG*eT*dT*d[5mC]*dT*dG*d[5mC]*dA*dG*dG*dA*dG*d[5mC]*dG*dG*e[5mC]*e[5mC]*eT*eA*eA) [compound 422292] .
83

Name the recorded percent inhibition of Factor 7 mRNA, relative to untreated control cells for 422150 (antisense eG*e[5mC]*eA*dT*dG*dG*dT*dG*dA*dT*dG*d[5mC]*dT*dT*d[5mC]*dT*dG*eA*eA*eT) [compound 422150] .
86

Name the recorded percent inhibition of Factor 7 mRNA, relative to untreated control cells for 422296 (antisense e[5mC]*e[5mC]*dG*dA*dG*dT*dT*d[5mC]*dT*dG*d[5mC]*dA*dG*dG*dA*eG*e[5mC]*eG*eG*e[5mC]) [compound 422296] .
82

Name the recorded percent inhibition of Factor 7 mRNA, relative to untreated control cells for 422183 (antisense eG*e[5mC]*eG*d[5mC]*d[5mC]*dA*d[5mC]*d[5mC]*d[5mC]*dG*d[5mC]*d[5mC]*dG*dG*d[5mC]*dT*d[5mC]*eT*eG*e[5mC]) [compound 422183] .
71
